All figures here come from paper PMC12298270.

# test method notes: Plasma levels of IVA, TEZ and ELX by LC-MS/MS in pediatric cystic fibrosis patients at steady state on Kaftrio
# Type: in vivo, human
# recorded conditions: both sexes, human, plasma, oral, n = 25 pediatric CF patients; C12h estimated as C4h*e^−β(t12−t4); read-out: Measured AUC0–12h, 75th Percentile
readout type: AUC(0-t) (ng·h/mL)
Please give a number only; it is taken to be in ng·h/mL.

Prompt line: Suppose we examine the compound `CC(C)(C)c1cc(C(C)(C)C)c(NC(=O)c2c[nH]c3ccccc3c2=O)cc1O` ; what AUC(0-t) value has been reported?
Response line: 19400

====

# test method notes: Plasma levels of IVA, TEZ and ELX by LC-MS/MS in pediatric cystic fibrosis patients at steady state on Kaftrio
# Type: in vivo, human
# recorded conditions: both sexes, human, plasma, oral, n = 25 pediatric CF patients; C12h estimated as C4h*e^−β(t12−t4); read-out: Measured AUC0–12h, 25th Percentile
readout type: AUC(0-t) (ng·h/mL)
Give the value, in units of ng·h/mL, as a plain number.

Prompt line: So what does the record say about AUC(0-t) for CC(C)(C)c1cc(C(C)(C)C)c(NC(=O)c2c[nH]c3ccccc3c2=O)cc1O [IVA, Ivacaftor] ?
Response line: 7930
